These data points were gathered from the kinase profiling compilation of Christmann-Franck et al. (2016).

tested on: MATK (human) (UniProt P42679)
Sequence (P42679 whole entry, looked up): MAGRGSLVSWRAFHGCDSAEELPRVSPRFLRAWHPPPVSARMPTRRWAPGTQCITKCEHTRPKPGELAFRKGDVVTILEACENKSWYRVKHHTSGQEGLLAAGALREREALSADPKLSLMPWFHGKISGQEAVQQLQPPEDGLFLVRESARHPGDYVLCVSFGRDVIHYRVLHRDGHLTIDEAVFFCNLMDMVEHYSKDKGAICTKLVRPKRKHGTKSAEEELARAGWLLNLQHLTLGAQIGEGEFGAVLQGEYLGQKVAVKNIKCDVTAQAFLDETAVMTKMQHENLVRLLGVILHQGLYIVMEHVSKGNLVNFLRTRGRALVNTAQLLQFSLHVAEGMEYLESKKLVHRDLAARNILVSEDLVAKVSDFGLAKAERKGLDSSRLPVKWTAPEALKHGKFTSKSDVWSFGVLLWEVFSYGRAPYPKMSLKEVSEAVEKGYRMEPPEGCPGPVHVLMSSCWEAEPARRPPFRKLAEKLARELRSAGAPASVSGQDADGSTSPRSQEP
assay explanation: radiometric filter-binding kinase assay, Kinase HotSpot
run conditions: compound 0.5 µM; ATP 10 µM
The compounds listed here are annotated with their residual activity.

{"smi": "O=C(c1ccccc1)c1ccc(N2CCOCC2)cc1O", "residual activity / %": 92.5}
{"smi": "N#C/C(=C1/Nc2ccccc2S1)c1ccnc(NCCc2cccnc2)n1", "residual activity / %": 89.8}
{"smi": "CCOc1cc2ncnc(Nc3cccc(Br)c3)c2cc1OCC", "residual activity / %": 90.5}
{"smi": "Nc1ncnc2c1cnn2-c1ccccc1", "residual activity / %": 89.9}
{"smi": "COc1cccc(-c2cc(=O)c3ccccc3o2)c1N", "residual activity / %": 88.6}

---

The compounds listed here are annotated with their residual activity.
tested on: UniProtKB Q8N4C8
Sequence (Q8N4C8 whole entry, looked up): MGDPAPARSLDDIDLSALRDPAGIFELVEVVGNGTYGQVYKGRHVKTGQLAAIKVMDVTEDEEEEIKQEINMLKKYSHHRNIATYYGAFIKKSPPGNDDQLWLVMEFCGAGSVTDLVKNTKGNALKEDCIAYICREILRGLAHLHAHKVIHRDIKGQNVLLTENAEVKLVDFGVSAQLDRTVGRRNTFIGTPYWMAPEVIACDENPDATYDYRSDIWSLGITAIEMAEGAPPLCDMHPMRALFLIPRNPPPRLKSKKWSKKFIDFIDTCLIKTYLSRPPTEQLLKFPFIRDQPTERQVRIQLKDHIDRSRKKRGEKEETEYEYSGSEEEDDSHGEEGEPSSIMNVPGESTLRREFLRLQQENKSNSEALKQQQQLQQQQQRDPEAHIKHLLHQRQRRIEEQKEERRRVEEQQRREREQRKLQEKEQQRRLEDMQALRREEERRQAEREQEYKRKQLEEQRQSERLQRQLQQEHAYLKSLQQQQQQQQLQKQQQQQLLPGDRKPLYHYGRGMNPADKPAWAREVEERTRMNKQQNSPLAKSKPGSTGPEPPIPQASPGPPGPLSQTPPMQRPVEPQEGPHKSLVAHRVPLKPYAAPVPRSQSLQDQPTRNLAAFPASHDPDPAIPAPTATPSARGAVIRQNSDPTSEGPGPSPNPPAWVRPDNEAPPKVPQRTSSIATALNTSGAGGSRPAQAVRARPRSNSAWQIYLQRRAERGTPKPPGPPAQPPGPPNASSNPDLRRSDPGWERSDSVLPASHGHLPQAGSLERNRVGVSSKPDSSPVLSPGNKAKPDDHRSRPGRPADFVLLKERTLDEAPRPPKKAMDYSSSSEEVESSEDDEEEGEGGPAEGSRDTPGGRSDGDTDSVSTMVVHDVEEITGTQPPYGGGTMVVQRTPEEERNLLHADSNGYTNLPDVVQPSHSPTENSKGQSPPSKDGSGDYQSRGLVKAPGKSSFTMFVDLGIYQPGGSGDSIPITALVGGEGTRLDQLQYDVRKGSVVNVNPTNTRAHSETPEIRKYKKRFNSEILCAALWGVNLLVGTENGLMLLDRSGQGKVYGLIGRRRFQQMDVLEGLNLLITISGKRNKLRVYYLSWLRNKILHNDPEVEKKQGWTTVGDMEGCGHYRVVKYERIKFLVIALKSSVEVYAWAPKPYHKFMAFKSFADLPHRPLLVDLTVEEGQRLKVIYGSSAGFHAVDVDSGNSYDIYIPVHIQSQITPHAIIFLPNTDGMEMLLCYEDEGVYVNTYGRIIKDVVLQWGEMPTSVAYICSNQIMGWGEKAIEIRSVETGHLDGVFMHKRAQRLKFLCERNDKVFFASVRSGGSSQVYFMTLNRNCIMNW
assay explanation: radiometric filter-binding kinase assay, Kinase HotSpot
run conditions: compound 0.5 µM; ATP 10 µM

{"smi": "FC(F)(F)c1ccc(/C=C/c2nc(COc3ccc(CCCCn4ccnn4)cc3)co2)cc1", "residual activity [%]": 96.8}
{"smi": "CCc1nc(-c2ccc(OC)cc2)[nH]c1-c1ccncc1", "residual activity [%]": 103}
{"smi": "COc1cc2ncnc(Nc3ccc(O)c(Br)c3)c2cc1OC", "residual activity [%]": 64.4}
{"smi": "COc1cc2c(N3CCN(C(=O)Nc4ccc(OC(C)C)cc4)CC3)ncnc2cc1OCCCN1CCCCC1", "residual activity [%]": 99}
{"smi": "O=c1cc(N2CCOCC2)oc2c(-c3ccccc3)cccc12", "residual activity [%]": 94.6}
{"smi": "Cn1cc(/C=C2\\C(=O)Nc3ccc(S(N)(=O)=O)cc32)c2ccccc21", "residual activity [%]": 53.7}
{"smi": "CCOc1cc2ncnc(Nc3cccc(Br)c3)c2cc1OCC", "residual activity [%]": 77.8}
{"smi": "O=C1NC(=O)c2cc(Nc3ccc(F)cc3)c(Nc3ccc(F)cc3)cc21", "residual activity [%]": 99}
{"smi": "Nc1ncnc2c1cnn2-c1ccccc1", "residual activity [%]": 88.9}
{"smi": "N#C/C(=C1/Nc2ccccc2S1)c1ccnc(NCCc2cccnc2)n1", "residual activity [%]": 93.3}
{"smi": "O=c1c(-c2ccc(F)cc2)c(-c2ccncc2)[nH]n1-c1ccc(Cl)cc1", "residual activity [%]": 97.3}
{"smi": "Cc1cc(Nc2nc(-c3ccccc3)nc3ccccc23)n[nH]1", "residual activity [%]": 35.6}
{"smi": "O=S(=O)(NCCNC/C=C/c1ccc(Br)cc1)c1cccc2cnccc12", "residual activity [%]": 91.1}
{"smi": "COc1cccc(-c2cc(=O)c3ccccc3o2)c1N", "residual activity [%]": 96.2}
{"smi": "O=C1NC(=O)c2c1c1c3ccccc3[nH]c1c1[nH]c3cc(Br)ccc3c21", "residual activity [%]": 52.2}
{"smi": "O=C(O)c1ccc2c3c1cccc3c(=O)n1c3ccccc3nc21", "residual activity [%]": 79.8}
{"smi": "O=C(c1ccccc1)c1ccc(N2CCOCC2)cc1O", "residual activity [%]": 91.1}
{"smi": "N/C(=N\\N=C/c1ccc(-c2cccc([N+](=O)[O-])c2)o1)N[N+](=O)[O-]", "residual activity [%]": 84.1}
{"smi": "O=c1[nH]c2ccccc2n1C1CCN(Cc2ccc(-c3nc4cc5[nH]cnc5cc4nc3-c3ccccc3)cc2)CC1", "residual activity [%]": 103}
